# Test system: UACC-62 melanoma
# EXPERIMENTAL_DETAILS: NCI tumour cell line growth inhibition, 48 h
MEASURE_NAME: GI50

O=[N+]([O-])c1ccc(Sc2nc(Cl)nc(NC3CCCC3)n2)cc1 | > 10 µM
COc1cc(/C=C2\Oc3cc(OCCCN4CCCC4)ccc3C2=O)cc(OC)c1 | 2.78 µM

For record NC1CCC(Nc2nc(NCc3cc(Cl)ccc3O)c3ncn(C4CCCC4)c3n2)CC1 (stereo not given) the listed GI50 is 0.149 µM

For record Cc1cccc2nc3cccc(C(=O)NCCNCCNCCNC(=O)c4cccc5nc6cccc(C)c6nc45)c3nc12 the listed GI50 is 0.0137 µM

For record CCCCCc1cc[n+](CC(=O)c2ccc([N+](=O)[O-])cc2)cc1 the listed GI50 is 10.8 µM

For record O=C1C(Nc2ccc(Br)cc2)=C(I)C(=O)c2ncccc21 the listed GI50 is 1.16 µM

For record O=C1CCCCC=C1C[N+](=O)[O-] the listed GI50 is 18.7 µM

For record Nc1ccccc1NC(=O)c1ccc(CN2CCC/C(=C\c3ccccn3)C2=O)cc1 the listed GI50 is 0.411 µM

For record CNc1cc2nc3cc(NC)c(C)cc3cc2cc1C the listed GI50 is 8.82 µM

For record CCCCCCC/C=C/[C@H]1O[C@]2(O)C(=O)C=C3C[C@@H](O[C@@H]4O[C@H](CO)[C@@H](O)C(O)[C@@H]4O)C[C@@H]3[C@H]2C=C1C (stereo not given in full) the listed GI50 is 1.79 µM

----------
# Test system: SF-268 CNS
# EXPERIMENTAL_DETAILS: NCI tumour cell line growth inhibition, 48 h
This listing pairs compounds with measured TGI.

O=C1C(Cl)C2(CC(/C=C/c3ccccc3O)=NN2c2cccc(S(=O)(=O)O)c2)N1c1nc2ccccc2s1 (stereo not given) | 43.4 µM
CC1(C)OCC(C2OC(OC(=O)c3ccc([N+](=O)[O-])cc3)C3OC(C)(C)OC23)O1 (stereo not given) | > 100 µM
COC(=O)c1c2c(cc3c1CC1(C3)Cc3cc4c(c(C(C)=O)c3C1)CCC4)C=CC2 (stereo not given) | > 31.6 µM
CC(=O)c1ccc(Nc2nc(Nc3ccc(F)cc3)nc(Nc3ccc(F)cc3)n2)cc1 | 46.6 µM
O=[N+]([O-])c1ccc(Sc2nc(Cl)nc(NC3CCCC3)n2)cc1 | > 10 µM
COc1cc(/C=C/c2nc(N)nnc2C)cc(OC)c1OC | > 54.4 µM
CN1C(=O)C(C(N)=O)C2CC1(C)Oc1ccccc12 (stereo not given) | > 100 µM
C[N+](C)(C)/N=C/c1ccc(O)c(O)c1 | > 100 µM

For record COC(=O)NC(=Nc1ccc(Oc2ccccc2)cc1NC=O)NC(=O)OC the listed TGI is > 100 µM

For record Cc1ccc(/C=C/C(=N/N=C(N)N)c2ccccc2)cc1 the listed TGI is 16.3 µM

----------
This listing pairs compounds with measured TGI.
# Test system: BT-549 breast
# EXPERIMENTAL_DETAILS: NCI tumour cell line growth inhibition, 48 h

Known results for compounds:
COC1=CC(=O)c2c(cc(COP(=O)(OCC3OC(n4cc(F)c(=O)[nH]c4=O)CC3O)N(C)CCCCCl)n2C)C1=O (stereo unspecified) | > 100 µM
O=C1CCCCC=C1C[N+](=O)[O-] | 61.4 µM
CC(=O)Nc1ccc(-c2nc3ccccc3s2)cc1C | > 100 µM
CCOC(=O)/C(N=Nc1ccc(-n2c(C)nc3ccc(Br)cc3c2=O)cc1)=C(/C)O | > 100 µM

For record Cc1ccc(Nc2[nH]c(=O)[nH]c(=O)c2C)cc1Cl the listed TGI is > 100 µM

For record Nc1ccccc1NC(=O)c1ccc(CN2CCC/C(=C\c3ccccn3)C2=O)cc1 the listed TGI is > 100 µM

All figures here come from PubChem BioAssay (NCI).
